System: 1A9
PROTOCOL_SUMMARY: Cytotoxicity against human 1A9 cells after 48 hrs by MTT assay
Type: functional, cell-based
REPORTED_CONDITIONS: 1A9, 48 h
The entries below are paired with their reported pIC50.
Please report pIC50 as the negative decimal logarithm of the molar concentration, giving only the number.

entry_smiles=CC(C)(C)OC(=O)N[C@@H](CSC(Cl)=C(Cl)Cl)C(=O)N[C@@H]1[C@@H](O)[C@H](O)[C@@H](CO)O[C@H]1SC1CCCCC1 target_or_test_system=1A9 observed_property=pIC50 reported_value=4.48

Note down pIC50 recorded for CC(C)(C)OC(=O)N[C@@H](CSC(Cl)=C(Cl)Cl)C(=O)N[C@@H]1[C@@H](O)[C@H](O)[C@@H](CO)O[C@@H]1SC1CCCCC1
3.99

Note down pIC50 recorded for N[C@@H](CSC(Cl)=C(Cl)Cl)C(=O)N[C@@H]1[C@@H](O)[C@H](O)[C@@H](CO)O[C@@H]1SC1CCCCC1
4.10

Note down pIC50 recorded for N[C@@H](CSC(Cl)=C(Cl)Cl)C(=O)N[C@@H]1[C@@H](O)[C@H](O)[C@@H](CO)O[C@H]1SC1CCCCC1
3.92
